test.name: Cmax in Sprague-Dawley rat at 10 mg/kg, iv
Type: ADME, organism-based
Parameters: dose 10 mg/kg, route intravenous
experimental.context: in vivo
readout: Cmax
Write your answer as a measured quantity: the number, then the unit.

// Cmax lookup, key: N#C[C@@H]1C[C@@H]2CCC[C@@H]2N1C(=O)C[C@H](N)Cc1cc(F)c(F)cc1F 1120 ng/mL

====

test.name: Cmax in Sprague-Dawley rat at 20 mg/kg, po
Format: ADME, organism-based
Design: dose 20 mg/kg, route oral
experimental.context: in vivo
readout: Cmax (ng/mL)
Numeric only. Scale: ng/mL

// query Cmax value for entry N#C[C@@H]1C[C@@H]2CCC[C@@H]2N1C(=O)C[C@H](N)Cc1cc(F)c(F)cc1F 509

====

test.name: Cmax in Sprague-Dawley rat at 50 mg/kg, po
Format: ADME, organism-based
Parameters: dose 50 mg/kg, route oral
experimental.context: in vivo
readout: Cmax (ng/mL)
Write down the numeric answer in ng/mL and omit the unit.

Query: Cmax; subject: N#C[C@@H]1C[C@H](F)CN1C(=O)C[C@H](N)Cc1cc(F)c(F)cc1F 2690

====

test.name: Tmax in Sprague-Dawley rat at 10 mg/kg, iv
Format: ADME, organism-based
Set-up: dose 10 mg/kg, route intravenous
experimental.context: in vivo
readout: Tmax (min)
Answer format: numeric, min implied, no suffix.

Given the molecule N#C[C@@H]1C[C@@H]2CCC[C@@H]2N1C(=O)C[C@H](N)Cc1cc(F)c(F)cc1F , what is its reported Tmax? 30

====

test.name: Half life in Sprague-Dawley rat at 20 mg/kg, iv
Assay type: ADME, organism-based
Set-up: dose 20 mg/kg, route intravenous
experimental.context: in vivo
readout: half-life (h)
Express it in h; write the number only.

Data request, read-out half-life, for N#C[C@@H]1C[C@H](F)CN1C(=O)C[C@H](N)Cc1cc(F)c(F)cc1F 2.33

====

target: Voltage-gated inwardly rectifying potassium channel KCNH2 (Homo sapiens, UniProt Q12809)
Sequence (Q12809 whole entry): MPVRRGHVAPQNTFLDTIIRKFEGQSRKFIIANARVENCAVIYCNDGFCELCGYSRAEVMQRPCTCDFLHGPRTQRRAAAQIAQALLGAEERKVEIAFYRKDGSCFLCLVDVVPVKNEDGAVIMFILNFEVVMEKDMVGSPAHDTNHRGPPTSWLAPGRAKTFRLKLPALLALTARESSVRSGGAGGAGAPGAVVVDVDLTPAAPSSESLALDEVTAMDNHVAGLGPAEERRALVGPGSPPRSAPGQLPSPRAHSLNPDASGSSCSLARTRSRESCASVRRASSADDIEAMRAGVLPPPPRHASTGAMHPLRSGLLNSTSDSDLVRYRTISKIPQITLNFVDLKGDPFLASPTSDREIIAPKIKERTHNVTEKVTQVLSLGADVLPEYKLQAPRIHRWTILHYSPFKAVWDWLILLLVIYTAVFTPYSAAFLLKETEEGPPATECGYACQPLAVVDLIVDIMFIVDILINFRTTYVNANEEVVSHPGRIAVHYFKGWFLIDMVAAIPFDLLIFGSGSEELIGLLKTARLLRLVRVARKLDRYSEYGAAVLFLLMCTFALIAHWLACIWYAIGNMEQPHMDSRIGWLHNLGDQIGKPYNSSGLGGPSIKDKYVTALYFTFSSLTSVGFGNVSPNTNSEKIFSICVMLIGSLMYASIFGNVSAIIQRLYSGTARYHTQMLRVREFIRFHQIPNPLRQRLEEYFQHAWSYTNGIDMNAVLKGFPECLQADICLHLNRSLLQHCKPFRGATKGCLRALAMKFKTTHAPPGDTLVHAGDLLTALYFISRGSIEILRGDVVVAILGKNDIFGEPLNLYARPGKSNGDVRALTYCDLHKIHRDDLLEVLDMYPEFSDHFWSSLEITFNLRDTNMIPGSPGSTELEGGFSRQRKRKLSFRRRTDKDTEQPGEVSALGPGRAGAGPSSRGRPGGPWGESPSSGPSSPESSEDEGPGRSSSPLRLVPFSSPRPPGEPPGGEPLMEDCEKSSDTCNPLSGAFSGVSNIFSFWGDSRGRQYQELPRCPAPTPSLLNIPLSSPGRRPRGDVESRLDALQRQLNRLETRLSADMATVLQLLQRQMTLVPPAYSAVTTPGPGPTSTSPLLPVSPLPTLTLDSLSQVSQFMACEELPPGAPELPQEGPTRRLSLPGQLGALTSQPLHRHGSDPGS
test.name: Inhibition of human ERG expressed in CHO cells after 20 mins by thallium assay
Format: cell-based
readout: IC50 (µM)
Hi! Could you send only the number? It should be in µM, unit omitted.

Could you tell me which IC50 is on file for N#C[C@@H]1C[C@@H]2CCC[C@@H]2N1C(=O)C[C@H](N)Cc1cc(F)c(F)cc1F ? 55.3

Here is the next molecule: N#C[C@@H]1C[C@H](F)CN1C(=O)C[C@H](N)Cc1cc(F)c(F)cc1F 97.7

====

test.name: Apparent clearance in Sprague-Dawley rat at 10 mg/kg, iv
Type: ADME, organism-based
Set-up: dose 10 mg/kg, route intravenous
experimental.context: in vivo, read-out: CL(app) (converted)
readout: clearance (mL/min/kg)
Give the quantity in mL/min/kg, number only.

Looking for the measured clearance of N#C[C@@H]1C[C@@H]2CCC[C@@H]2N1C(=O)C[C@H](N)Cc1cc(F)c(F)cc1F , can you help? 33.5

====

test.name: Half life in Sprague-Dawley rat at 20 mg/kg, po
Type: ADME, organism-based
Set-up: dose 20 mg/kg, route oral
experimental.context: in vivo
readout: half-life (h)
Provide the reading as a plain figure in h.

Item under review: N#C[C@@H]1C[C@@H]2CCC[C@@H]2N1C(=O)C[C@H](N)Cc1cc(F)c(F)cc1F . Reported half-life? 2.74

====

Tested on: Rattus norvegicus
test.name: AUC (0 to infinity) in Sprague-Dawley rat at 20 mg/kg, po
Assay type: ADME, organism-based, Plasma
Set-up: time infinity, dose 20 mg/kg, route oral
experimental.context: in vivo
readout: AUC
In your response, put the unit directly after the numeric value.

Given the compound N#C[C@@H]1C[C@@H]2CCC[C@@H]2N1C(=O)C[C@H](N)Cc1cc(F)c(F)cc1F , what is its reported AUC? 2360 ng/mL.hr

====

Tested on: Rattus norvegicus
test.name: AUC (0 to infinity) in Sprague-Dawley rat at 20 mg/kg, iv
Assay type: ADME, organism-based, Plasma
Design: dose 20 mg/kg, route intravenous, time infinity
experimental.context: in vivo
readout: AUC

Reported AUC for N#C[C@@H]1C[C@H](F)CN1C(=O)C[C@H](N)Cc1cc(F)c(F)cc1F : what is it? 5870 ng/mL.hr

====

target: Voltage-gated inwardly rectifying potassium channel KCNH2 (Homo sapiens)
test.name: Inhibition of human ERG expressed in CHO cells after 20 mins by patch clamp assay
Assay type: cell-based
pIC50: −log10 of the molar value.
readout: pIC50

Look at this molecule and give its reported pIC50. N#C[C@@H]1C[C@@H]2CCC[C@@H]2N1C(=O)C[C@H](N)Cc1cc(F)c(F)cc1F < 4.40

Now the molecule N#C[C@@H]1C[C@H](F)CN1C(=O)C[C@H](N)Cc1cc(F)c(F)cc1F < 4.40

====

test.name: AUC (0 to t) in Sprague-Dawley rat at 10 mg/kg, iv
Format: ADME, organism-based
Parameters: dose 10 mg/kg, route intravenous
experimental.context: plasma
readout: AUC(0-t) (ng·h/mL)
Write it as a number; the unit ng·h/mL goes unstated.

I have this compound here, N#C[C@@H]1C[C@@H]2CCC[C@@H]2N1C(=O)C[C@H](N)Cc1cc(F)c(F)cc1F , and I need its recorded AUC(0-t). 4470

====

Please go through the items and note down their IC50.
target: Prolyl endopeptidase FAP (Homo sapiens)
Sequence (Q12884 whole entry): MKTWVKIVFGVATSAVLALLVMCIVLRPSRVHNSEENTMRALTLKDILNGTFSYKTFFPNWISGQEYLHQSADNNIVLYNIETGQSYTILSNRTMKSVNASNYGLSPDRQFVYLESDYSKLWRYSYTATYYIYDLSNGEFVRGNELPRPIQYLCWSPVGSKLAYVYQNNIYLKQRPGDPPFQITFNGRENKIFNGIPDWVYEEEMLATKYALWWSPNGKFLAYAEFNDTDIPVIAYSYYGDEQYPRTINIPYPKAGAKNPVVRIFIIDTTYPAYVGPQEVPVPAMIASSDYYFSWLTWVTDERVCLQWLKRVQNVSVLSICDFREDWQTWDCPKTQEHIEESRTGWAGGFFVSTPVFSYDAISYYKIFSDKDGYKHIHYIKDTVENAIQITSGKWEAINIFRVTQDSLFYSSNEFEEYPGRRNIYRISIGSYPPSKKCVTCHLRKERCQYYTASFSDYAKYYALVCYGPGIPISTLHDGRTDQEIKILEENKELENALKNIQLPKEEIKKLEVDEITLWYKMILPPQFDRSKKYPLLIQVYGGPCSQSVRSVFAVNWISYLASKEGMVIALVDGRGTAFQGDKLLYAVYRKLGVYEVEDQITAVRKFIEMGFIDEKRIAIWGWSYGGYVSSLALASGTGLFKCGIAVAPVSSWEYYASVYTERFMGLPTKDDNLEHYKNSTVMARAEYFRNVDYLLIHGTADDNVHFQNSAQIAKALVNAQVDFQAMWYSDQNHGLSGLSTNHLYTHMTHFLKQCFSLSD
test.name: Inhibition of FAP (unknown origin) expressed in baculovirus expression system using Nle-Pro-AMC as substrate by continuous fluorometric assay
experimental.context: read-out: IC50
Give the value in µM but do not write µM after it.

Fill blank: measured IC50 of the compound N#C[C@@H]1C[C@@H]2CCC[C@@H]2N1C(=O)C[C@H](N)Cc1ccc(F)cc1 is ____. 154

Same again, this time with Cc1ccccc1C[C@@H](N)CC(=O)N1[C@H](C#N)C[C@@H]2CCC[C@@H]21 110

====

test.name: Cmax in Sprague-Dawley rat at 20 mg/kg, iv
Format: ADME, organism-based
Set-up: dose 20 mg/kg, route intravenous
experimental.context: in vivo
readout: Cmax (µg/mL)
Enter your answer as a number in µg/mL; do not include the unit.

What Cmax value was documented for this compound, N#C[C@@H]1C[C@H](F)CN1C(=O)C[C@H](N)Cc1cc(F)c(F)cc1F ? 2.71

====

test.name: Mean residence time in Sprague-Dawley rat at 50 mg/kg, po
Type: ADME, organism-based
Parameters: dose 50 mg/kg, route oral
experimental.context: in vivo
readout: MRT (h)
State just the number; it will be interpreted in h.

Fill in the blank: the reported MRT of N#C[C@@H]1C[C@H](F)CN1C(=O)C[C@H](N)Cc1cc(F)c(F)cc1F is ____. 3.03

====

test.name: Tmax in Sprague-Dawley rat at 20 mg/kg, iv
Type: ADME, organism-based
Parameters: dose 20 mg/kg, route intravenous
experimental.context: in vivo
readout: Tmax (min)
Field: numeric (min). Do not append units.

I have this compound here, N#C[C@@H]1C[C@H](F)CN1C(=O)C[C@H](N)Cc1cc(F)c(F)cc1F , and I need its recorded Tmax. 18

====

test.name: Mean residence time in Sprague-Dawley rat at 20 mg/kg, iv
Type: ADME, organism-based
Parameters: dose 20 mg/kg, route intravenous
experimental.context: in vivo
readout: MRT (h)
The reply should be a number in h, with the unit left off.

Item N#C[C@@H]1C[C@H](F)CN1C(=O)C[C@H](N)Cc1cc(F)c(F)cc1F has what recorded MRT? 2.93
